Just for reference, the supplement of paper PMC10065799 is where these values come from.

target: Hck (UniProt P08631); experiment: phosphorylation enrichment, bacterial display (enrichment ratio); higher = better substrate or ligand; peptides without Tyr show the background
Sequence (P08631 whole entry, looked up): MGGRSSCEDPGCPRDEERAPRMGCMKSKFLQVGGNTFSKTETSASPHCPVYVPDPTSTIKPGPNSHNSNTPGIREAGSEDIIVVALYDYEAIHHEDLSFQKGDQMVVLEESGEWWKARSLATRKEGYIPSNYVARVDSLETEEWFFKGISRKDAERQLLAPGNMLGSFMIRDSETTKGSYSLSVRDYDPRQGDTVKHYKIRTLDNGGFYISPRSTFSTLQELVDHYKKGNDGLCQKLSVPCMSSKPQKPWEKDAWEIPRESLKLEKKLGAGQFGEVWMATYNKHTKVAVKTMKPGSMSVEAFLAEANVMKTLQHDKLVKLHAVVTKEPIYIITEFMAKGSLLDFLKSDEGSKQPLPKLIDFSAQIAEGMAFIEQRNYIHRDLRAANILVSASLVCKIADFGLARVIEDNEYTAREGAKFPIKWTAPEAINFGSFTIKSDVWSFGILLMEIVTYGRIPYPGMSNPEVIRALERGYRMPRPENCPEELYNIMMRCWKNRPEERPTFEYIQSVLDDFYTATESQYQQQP
The threshold is inclusive: phosphorylation enrichment of exactly 0.5 counts as T; values below receive F.

Worked examples, 3 sequences total:
1. AVVEPYNSILT [TUBA1A_Y185] | F
2. SVTCTYSPAVN [TP53_Y126_L130V] | T
3. MAFDRYVAICA [OR52J3_Y125_V128I] | T

Query: Dear colleague, could you confirm whether PNATLYKMSSI [SERPINA7_Y40] has phosphorylation enrichment at or above 0.5?
Reply: F

Query: Same again, this time with LGRKLYSIAAP [ABHD12_Y345]
Reply: T

Query: Same again, this time with RDLHTYIMPAH [PNMT_Y256_R254H]
Reply: T

Query: Same again, this time with GYYDLYGGEKF [PTPN11_Y66_D61G]
Reply: T

Query: Same again, this time with RGVTHYILQTF [SLC39A4_Y359]
Reply: T

Query: Same again, this time with SEELHYFVQNH [UQCRC2_Y207]
Reply: T

Query: Same again, this time with GFSDPYVKAFL [SYT3_Y470_S474F]
Reply: F

Query: Same again, this time with HNLNYYKKTTN [FGFR3_Y648_D646N]
Reply: F

Query: Same again, this time with SSFSRYIMMPN [LEF1_Y114_G113R_YF]
Reply: T

Query: Same again, this time with CVVVPYEPPEV [TP53_Y220_S215C]
Reply: T

Query: Same again, this time with RDMNACIRPSP [MMAA_Y207_Y207C]
Reply: T

Query: Same again, this time with EMTAEYTCTRK [ACAD9_Y325_A326T]
Reply: T

Query: Same again, this time with HKANEYYPVVL [ADAMTS18_Y764]
Reply: T

Query: Same again, this time with IKKLIYVHLVI [JAGN1_Y42]
Reply: T

Query: Same again, this time with IDFARYWHGND [MMP11_Y162_D166N]
Reply: F

Query: Same again, this time with CWAVKYLQMVG [AVPR2_Y117_R113W]
Reply: F

----------
molecular target: EPHB2 (UniProt P29323); assay: phosphorylation enrichment, bacterial display (enrichment ratio); higher = better substrate or ligand; peptides without Tyr show the background
Sequence (P29323 whole entry, looked up): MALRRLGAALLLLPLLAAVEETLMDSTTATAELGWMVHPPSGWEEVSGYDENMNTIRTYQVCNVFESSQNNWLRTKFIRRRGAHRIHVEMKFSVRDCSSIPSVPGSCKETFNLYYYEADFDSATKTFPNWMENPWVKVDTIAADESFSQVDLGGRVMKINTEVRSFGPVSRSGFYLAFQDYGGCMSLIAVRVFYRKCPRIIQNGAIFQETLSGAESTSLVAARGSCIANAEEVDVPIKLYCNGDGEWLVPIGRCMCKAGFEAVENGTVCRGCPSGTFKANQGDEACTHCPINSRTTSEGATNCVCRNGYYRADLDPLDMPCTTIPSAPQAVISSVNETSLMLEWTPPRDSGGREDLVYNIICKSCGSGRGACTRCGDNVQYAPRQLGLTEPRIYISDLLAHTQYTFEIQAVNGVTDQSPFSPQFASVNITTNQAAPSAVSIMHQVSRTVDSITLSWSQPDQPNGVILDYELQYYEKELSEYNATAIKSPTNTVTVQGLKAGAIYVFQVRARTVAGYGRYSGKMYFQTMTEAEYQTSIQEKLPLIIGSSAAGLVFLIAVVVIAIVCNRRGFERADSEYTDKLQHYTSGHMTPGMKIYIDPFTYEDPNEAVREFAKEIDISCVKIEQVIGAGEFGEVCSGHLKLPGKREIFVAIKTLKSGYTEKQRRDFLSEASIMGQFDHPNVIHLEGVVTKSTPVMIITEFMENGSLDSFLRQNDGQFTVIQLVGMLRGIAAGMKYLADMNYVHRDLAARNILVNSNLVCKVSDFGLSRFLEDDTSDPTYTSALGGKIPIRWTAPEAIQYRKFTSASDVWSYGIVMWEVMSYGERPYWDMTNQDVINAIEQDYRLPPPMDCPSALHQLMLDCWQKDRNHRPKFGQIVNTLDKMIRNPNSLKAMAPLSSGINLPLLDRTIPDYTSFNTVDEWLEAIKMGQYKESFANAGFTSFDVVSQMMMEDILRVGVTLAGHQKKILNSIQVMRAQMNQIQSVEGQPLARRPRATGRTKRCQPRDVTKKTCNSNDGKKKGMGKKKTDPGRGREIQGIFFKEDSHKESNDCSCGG
OBSERVABLE: phosphorylation enrichment

1) AKAEICEMRPL [COX10_Y97_Y97C] | 0.516
2) SREDIYKRNTE [PDE4DIP_Y45_I49T] | 0.416

Query: Which value of phosphorylation enrichment has been reported for HNLNYYKKTTN [FGFR3_Y648_D646N] in the records?
Reply: 0.361

Query: Same again, this time with GRVLGYGAFRK [FLT4_Y853_G857R]
Reply: 0.432

Query: Same again, this time with LLVVLNKFRCF [PSEN1_Y154_Y154N_YF]
Reply: 1.11

Query: Same again, this time with PTTKTYFPHFA [HBA1_Y43_D48A]
Reply: 0.386

----------
The following sequences are listed with their measured phosphorylation enrichment values.
target: Fyn (UniProt P06241); experiment: phosphorylation enrichment, bacterial display (enrichment ratio); higher = better substrate or ligand; peptides without Tyr show the background
Sequence (P06241 whole entry, looked up): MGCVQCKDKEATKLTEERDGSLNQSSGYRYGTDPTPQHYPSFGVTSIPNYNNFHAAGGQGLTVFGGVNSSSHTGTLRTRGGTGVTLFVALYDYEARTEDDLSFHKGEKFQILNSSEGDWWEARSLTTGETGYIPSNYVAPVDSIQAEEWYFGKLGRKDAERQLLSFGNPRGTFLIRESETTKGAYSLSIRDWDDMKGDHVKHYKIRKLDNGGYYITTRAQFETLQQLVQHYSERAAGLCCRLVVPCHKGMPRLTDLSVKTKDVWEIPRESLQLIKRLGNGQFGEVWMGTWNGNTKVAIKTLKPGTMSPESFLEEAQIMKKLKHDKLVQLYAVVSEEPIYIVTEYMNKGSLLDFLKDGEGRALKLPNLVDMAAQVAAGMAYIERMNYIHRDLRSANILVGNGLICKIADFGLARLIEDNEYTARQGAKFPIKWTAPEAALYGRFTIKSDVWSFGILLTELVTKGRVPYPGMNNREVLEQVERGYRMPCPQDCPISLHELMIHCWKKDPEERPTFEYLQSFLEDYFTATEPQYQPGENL
// no unit string in output, number only

1) DTYDPYLDIAL [USP36_Y268_V271I] | 1.47
2) KFWREYILSLE [GPC3_Y299_YF] | 0.462
3) HTLQLYRCREE [ALPK3_Y342] | 0.573
4) KSVLVYRNGDP [DCDC2_Y22] | 0.426

Query: Which value of phosphorylation enrichment has been reported for KGIQLYDTPYE [SHB_Y297] in the records?
Reply: 0.891

----------
The following sequences are listed with their measured phosphorylation enrichment values.
molecular target: Hck (UniProt P08631); assay: phosphorylation enrichment, bacterial display (enrichment ratio); higher = better substrate or ligand; peptides without Tyr show the background
// no unit string in output, number only

Examples from the recorded data:
1) HNGVSYYINLC [IGF2R_Y2024] | 0.597
2) VQVAFYTVMMN [SPATA17_Y84_M86V_YF] | 0.605
3) ADDSYYTARSA [ZAP70_Y493] | 1.12
4) EEGNPYYSSTR [MCCC2_Y520_A524T] | 1.25
5) RVQQIYSDSDL [MIB1_Y376] | 3.68

Query: Which value of phosphorylation enrichment has been reported for EEGEEYGGGGG [TUBA1A_Y451] in the records?
Reply: 0.602

Query: Same again, this time with PRIKTYMRPSP [TDP1_Y497_H493R]
Reply: 0.36

Query: Same again, this time with ISPPVYLTNEW [NRK_Y885]
Reply: 0.732

Query: Same again, this time with DVRQEYPGMIL [PLXND1_Y616]
Reply: 0.497

----------
The following sequences are listed with their measured phosphorylation enrichment values.
system: c-Abl (mouse); assay: phosphorylation enrichment, bacterial display (enrichment ratio); higher = better substrate or ligand; peptides without Tyr show the background
// no unit string in output, number only

Query: Which value of phosphorylation enrichment has been reported for TGVRDYIHVVD [GALE_Y241] in the records?
Reply: 0.586

Query: Same again, this time with YAGRDYSLDEF [MYOF_Y1705_G1701A]
Reply: 0.928

Query: Same again, this time with SLDHPFEKPRK [INAVA_Y333_Y333F]
Reply: 0.61

----------
target: c-Src SH2; assay: SH2 binding enrichment of the phosphorylated peptide, bacterial display (enrichment ratio); higher = better substrate or ligand; peptides without Tyr show the background;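 also: peptide library displayed on the E. coli surface as eCPX fusions, selected cells deep-sequenced, score is each peptide's frequency after selection divided by its frequency in the input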
The threshold is inclusive: SH2 binding enrichment of exactly 0.5 counts as YES; values below receive NO.

Worked examples, 3 sequences total:
1. FRQNGYIPGSN [PCDHGA1_Y895_V894G_YF] | NO
2. INNKMYDPKMN [ENPP1_Y280_D276N] | NO
3. NQELIYEGQRL [TBK1_Y354_R357Q] | NO

Query: Dear colleague, could you confirm whether RENGPYFTSFP [GDAP2_Y487_YF] has SH2 binding enrichment at or above 0.5?
Reply: YES

Query: Same again, this time with GLTSTYVGIRK [ROBO1_Y932_A933V]
Reply: YES

Query: Same again, this time with DPNQQYFIAMD [TBX15_Y159_H156N_YF]
Reply: YES

----------
target: EPHB1 (UniProt P54762); test: phosphorylation enrichment, bacterial display (enrichment ratio); higher = better substrate or ligand; peptides without Tyr show the background
Sequence (P54762 whole entry, looked up): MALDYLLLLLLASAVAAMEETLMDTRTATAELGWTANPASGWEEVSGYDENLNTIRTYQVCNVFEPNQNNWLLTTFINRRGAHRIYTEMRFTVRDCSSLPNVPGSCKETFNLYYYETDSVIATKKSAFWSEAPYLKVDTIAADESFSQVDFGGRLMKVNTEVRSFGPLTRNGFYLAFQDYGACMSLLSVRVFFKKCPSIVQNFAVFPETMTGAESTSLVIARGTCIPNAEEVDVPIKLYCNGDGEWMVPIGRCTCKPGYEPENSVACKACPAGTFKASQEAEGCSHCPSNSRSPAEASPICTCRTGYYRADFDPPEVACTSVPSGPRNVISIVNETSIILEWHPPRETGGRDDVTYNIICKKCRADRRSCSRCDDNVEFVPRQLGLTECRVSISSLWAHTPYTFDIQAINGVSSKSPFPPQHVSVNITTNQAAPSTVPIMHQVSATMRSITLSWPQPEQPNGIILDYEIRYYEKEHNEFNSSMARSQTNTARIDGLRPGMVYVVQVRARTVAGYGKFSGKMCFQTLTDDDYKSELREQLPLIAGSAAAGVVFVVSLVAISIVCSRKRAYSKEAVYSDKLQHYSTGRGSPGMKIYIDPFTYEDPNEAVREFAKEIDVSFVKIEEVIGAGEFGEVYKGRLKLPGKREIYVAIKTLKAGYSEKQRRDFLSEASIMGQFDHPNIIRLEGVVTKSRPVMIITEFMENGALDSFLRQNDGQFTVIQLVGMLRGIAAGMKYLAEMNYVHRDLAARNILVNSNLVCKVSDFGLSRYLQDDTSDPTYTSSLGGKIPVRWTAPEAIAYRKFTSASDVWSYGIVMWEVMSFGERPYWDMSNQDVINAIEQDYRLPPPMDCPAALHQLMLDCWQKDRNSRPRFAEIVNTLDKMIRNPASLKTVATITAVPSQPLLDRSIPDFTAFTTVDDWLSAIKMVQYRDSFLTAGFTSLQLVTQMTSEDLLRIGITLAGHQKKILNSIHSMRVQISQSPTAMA
The following sequences are listed with their measured phosphorylation enrichment values.

1. RELGEYALAEF [ALDH1A3_Y492_YF] | 0.857
2. HTLQLYRCREE [ALPK3_Y342] | 0.499
3. VDLIVYLWTNP [TK2_Y181_R183W] | 0.643
4. FDSPFYQDSLP [TSC1_Y508_R509Q] | 0.503
5. ISTAGYSIPEL [EDAR_Y406] | 0.525
6. VKKKLYEEIDQ [CYP17A1_Y329] | 0.535

Query: Which value of phosphorylation enrichment has been reported for VNFQPYRKHKF [TEX37_Y28_D24N_YF] in the records?
Reply: 0.34

Query: Same again, this time with ISSLPYMKMIF [SLC4A11_Y853_M848I]
Reply: 0.536

Query: Same again, this time with ISPPVYLTNEW [NRK_Y885]
Reply: 0.694

Query: Same again, this time with YPPDGYSRHYE [CTNND1_Y213]
Reply: 0.388

Query: Same again, this time with TWEKPYECVQC [ZNF24_Y335_G331W]
Reply: 0.521

Query: Same again, this time with HSVLNYGVCVC [JAK2_Y613_L609S]
Reply: 0.87

Query: Same again, this time with DRLPSYLDKVR [KRT12_Y139_A137P]
Reply: 0.371

----------
test system: c-Src; test: phosphorylation enrichment, bacterial display (enrichment ratio); higher = better substrate or ligand; peptides without Tyr show the background
The threshold is inclusive: phosphorylation enrichment of exactly 0.5 counts as 1.0; values below receive 0.0.

Worked examples, 5 sequences total:
1. ADGLEYSRTEL [MMUT_Y287_G291E] | 0.0
2. EVVGRYSVHFA [MLH1_Y183_N187Y_YF] | 0.0
3. DKNSSYFADWF [TUBB8_Y340_L345F] | 0.0
4. KRTFEYEAEKN [DENND2B_Y396_D399E] | 1.0
5. SAVTGYRVDVI [FN1_Y937] | 0.0

As a next step, examine the sequence that follows.
Query: Dear colleague, could you confirm whether MRNDLYQTPLH [NFKB1_Y582] has phosphorylation enrichment at or above 0.5?
Reply: 1.0

----------
system: AncSZ; test: phosphorylation enrichment, bacterial display (enrichment ratio); higher = better substrate or ligand; peptides without Tyr show the background
Binning scheme for phosphorylation enrichment: range A: < 0.7; range B: ≥ 0.7 and < 1; range C: ≥ 1

1) IFGVSYGEFRF [CFTR_Y512_D513G_YF] | range B

Query: For the record ALIKAYDKAVA [SMN1_Y43] , report the class its phosphorylation enrichment corresponds to.
Reply: range A

Query: Same again, this time with QLAPQYTFTQG [FLNA_Y1761_A1764T_YF]
Reply: range C

Query: Same again, this time with YSGDCYRIQGR [DDR2_Y741_Y740C]
Reply: range B

Query: Same again, this time with VVEDGYEFFAK [PPP1CB_Y254]
Reply: range C
